- MEASUREMENT_DESCRIPTION: Quantitative High-Throughput drug screen in 47 multiple myeloma cell lines against the NCATS MIPE library collection: KMS27_JCRB cell viability assay (AID 1918970); also: nearly all actives have a fitted effect of over 30% in size
- CONDITION_SUMMARY: KMS27 myeloma cells, CellTiter-Glo ATP viability, 48 h; series mostly up to 45.8 µM
Inconclusive results are not listed. The source made the active and inactive calls. Calls follow the shape of the dose curve; as a rule, active = well fitted cell-killing curve with a large enough effect; inconclusive = small, poorly fitted or top-dose-only effect, or effect the other way; inactive = no such curve, though single readings can be large or run the other way. Non-standard residues stand in square brackets, D forms with d. Residues, ends and D or L forms follow the SMILES beside them. *: point of attachment. Sta = CC(C)C[C@H](N)[C@@H](O)CC(=O)O; Isovaleryl = CC(C)CC(=O)*
API: response.call in active, inactive

Solved entries (count: 3):
[
  {
    "MOLECULE": "CC(C)CC(=O)N[C@H](C(=O)N[C@H](C(=O)N[C@@H](CC(C)C)[C@@H](O)CC(=O)N[C@@H](C)C(=O)N[C@@H](CC(C)C)[C@@H](O)CC(=O)O)C(C)C)C(C)C (Isovaleryl-VV[Sta]A[Sta]-OH)",
    "GROUP_LABEL": "inactive"
  },
  {
    "MOLECULE": "O=C(O)c1cn(-c2ccc(F)cc2)c2cc(N3CCNCC3)c(F)cc2c1=O",
    "GROUP_LABEL": "inactive"
  },
  {
    "MOLECULE": "Oc1ccc2ccccc2c1SSc1c(O)ccc2ccccc12",
    "GROUP_LABEL": "active"
  }
]

I'd appreciate the recorded outcome for C=C(c1ccc(C(=O)O)cc1)c1cc2c(cc1C)C(C)(C)CCC2(C)C from this test.
active

I'd appreciate the recorded outcome for Cc1cc(O)c2c(c1)C(=O)c1cc(O)cc(O)c1C2=O from this test.
inactive

----------
- MEASUREMENT_DESCRIPTION: qHTS to identify inhibitors of the type 1 interferon - major histocompatibility complex class I in skeletal muscle: primary screen against the NCATS LOPAC collection (AID 1347405);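 also: human myoblasts with HiBiT tag on endogenous HLA-B stimulated by IFN-beta; lytic HiBiT luminescence reporting HLA-B protein level; % is scaled to controls: 0 for no effect and ±100 for the full control effect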
- CONDITION_SUMMARY: iHSKM muscle cells, IFN-b-induced MHC-I HiBiT luminescence, 24 h; series mostly up to 45.9 µM
Inconclusive results are not listed. Calls of active or inactive are those of the source. The call rests on the fitted dose curve; in most records, active means well fitted inhibition curve with a large enough effect; inconclusive means small, poorly fitted or top-dose-only effect; inactive means flat fitted curve, though single readings scatter.
OBSERVABLE: outcome

Worked examples, 5 molecules total:
[
  {
    "MOLECULE": "CC1(C)NC(=O)N(c2ccc([N+](=O)[O-])c(C(F)(F)F)c2)C1=O",
    "outcome": "inactive"
  },
  {
    "MOLECULE": "O=c1c(O)c(-c2ccc(O)cc2O)oc2cc(O)cc(O)c12",
    "outcome": "inactive"
  },
  {
    "MOLECULE": "C[C@H](Cc1ccc(O)c(O)c1)[C@@H](C)Cc1ccc(O)c(O)c1",
    "outcome": "inactive"
  },
  {
    "MOLECULE": "C[C@@H](c1ncncc1F)[C@](O)(Cn1cncn1)c1ccc(F)cc1F",
    "outcome": "inactive"
  },
  {
    "MOLECULE": "CC1(C)C(=O)N(CCN2CCC(C(=O)c3ccc(F)cc3)CC2)c2ccccc21",
    "outcome": "inactive"
  }
]

Return reported outcome. Input molecule: O=C1c2c(O)cc(O)cc2OC(c2ccc(O)c(O)c2)C1O (stereo unspecified)
inactive

----------
- MEASUREMENT_DESCRIPTION: Cell Proliferation Assay against the TMD8 Cell Line (AID 651645);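 also: cells exposed to compound for 48 h before reading; 100% = DMSO and 0% = 9.2 µM bortezomib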
- CONDITION_SUMMARY: TMD8 DLBCL cell line proliferation/viability; at 46.1 µM (top of the series) unless noted
Listing: viability (% of control) of selected compounds
Kindly answer with a numeric value in % [at 92.2 µM], unit omitted.

[
  {
    "COMPOUND": "Nc1nc(Cl)nc2c1ncn2[C@H]1C[C@H](O)[C@@H](CO)O1",
    "DISPLAY_UNIT": "% [at 92.2 µM]",
    "ASSAY_VALUE": -0.421
  }
]

Return reported viability (% of control). Input compound: Nc1cccc2c1CN(C1CCC(=O)NC1=O)C2=O (stereo not drawn)
102

----------
- MEASUREMENT_DESCRIPTION: qHTS of pediatric cancer cell lines to identify multiple opportunities for drug repurposing: Confirmatory screen for Rh18 cells (AID 1347125);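 also: cells exposed to compound for 48 h; nearly all actives have a fitted effect of over 55% in size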
- CONDITION_SUMMARY: Rh18 rhabdomyosarcoma cells, viability; series mostly up to 45.9 µM
Records with an inconclusive call do not appear. Calls of active or inactive are those of the source. Calls come from the whole dose curve; as a rule, active = well fitted cell-killing curve with a large enough effect; inconclusive = small, poorly fitted or top-dose-only effect, or effect the other way; inactive = flat fitted curve, though single readings scatter.
API: response.call in true (1) (active), false (0) (inactive)

[
  {
    "MOLECULE": "CCN(CC)CCOc1ccc(Nc2ncc3cc(-c4c(Cl)cccc4Cl)c(=O)n(C)c3n2)cc1",
    "GROUP_LABEL": "true (1)"
  },
  {
    "MOLECULE": "Oc1ccc(-c2nc(-c3ccc(F)cc3)c(-c3ccncc3)[nH]2)cc1",
    "GROUP_LABEL": "true (1)"
  },
  {
    "MOLECULE": "CN(C)c1ccc(O)c2c1C[C@H]1C[C@H]3[C@H](N(C)C)C(=O)C(C(N)=O)=C(O)[C@@]3(O)C(=O)C1=C2O",
    "GROUP_LABEL": "false (0)"
  },
  {
    "MOLECULE": "COc1cc(C(C)=O)ccc1OCCCN1CCC(c2noc3cc(F)ccc23)CC1",
    "GROUP_LABEL": "false (0)"
  },
  {
    "MOLECULE": "O=C(NCC1CCCCN1)c1cc(OCC(F)(F)F)ccc1OCC(F)(F)F (stereo not drawn)",
    "GROUP_LABEL": "false (0)"
  },
  {
    "MOLECULE": "C[C@]12CCC(=O)C=C1CC[C@@H]1[C@H]2[C@@H](O)C[C@@]2(C)[C@H]1CC[C@]2(O)C(=O)CO",
    "GROUP_LABEL": "false (0)"
  },
  {
    "MOLECULE": "O=C1c2c(O)cc(O)cc2OC(c2ccc(O)c(O)c2)C1O (stereo not drawn)",
    "GROUP_LABEL": "false (0)"
  }
]

Pending molecule:
I'd appreciate the recorded outcome for Nc1ncn([C@H]2C[C@H](O)[C@@H](CO)O2)c(=O)n1 from this test.
false (0)

----------
Listing: z-score of selected compounds
- MEASUREMENT_DESCRIPTION: qHTS for identification of novel therapeutic agents for treatment of microphthalmiaassociated transcription factor (MiT) renal cell carcinoma (RCC) (AID 1963991);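 also: curves scaled with 100% = DMSO viability and 0% = empty wells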
- CONDITION_SUMMARY: TFE3-RCC viability, CellTiter-Glo, 48 h; measured here: UOK124 Z-AUC; stronger effect = lower value
- Procedure: PI: Marston Linehan Ph.D. Urologic Oncology Branch, Center for Cancer Research (CCR) National Cancer Institute (NCI), National Institute of Health (NIH), Bethesda, Maryland […] 6; Detection; Luminescence; ViewLux plate reader (PerkinElmer). […] 1. Quantitative high-throughput screening (qHTS) of 1912 pharmacologically defined small molecule compounds was conducted on three TFE3-fusion cell lines bearing three different fusion partners (UOK109, UOK124, UOK145). […]
Inconclusive results are not listed.
Answer with the value's number alone.

[
  {
    "COMPOUND": "C[C@@H](c1ncncc1F)[C@](O)(Cn1cncn1)c1ccc(F)cc1F",
    "OBSERVABLE": "z-score",
    "ASSAY_VALUE": 0.588
  }
]

Return reported z-score. Input compound: CC(C)(S)[C@@H](N)C(=O)O
0.506

Return reported z-score. Input compound: CCCOc1ccc2nc(NC(=O)OC)[nH]c2c1
-3.82

Return reported z-score. Input compound: NS(=O)(=O)c1cc(C(=O)O)c(NCc2ccco2)cc1Cl
-0.245

Return reported z-score. Input compound: CC1Cc2ccccc2N1NC(=O)c1ccc(Cl)c(S(N)(=O)=O)c1 (stereo unspecified)
0.508

Return reported z-score. Input compound: COC(=O)N[C@H](C(=O)N[C@@H](Cc1ccccc1)[C@@H](O)CN(Cc1ccc(-c2ccccn2)cc1)NC(=O)[C@@H](NC(=O)OC)C(C)(C)C)C(C)(C)C
-0.0676

Return reported z-score. Input compound: c1cnc2cc3c(cc2n1)C1CNCC3C1
0.674

Return reported z-score. Input compound: CN1C(C(=O)Nc2ccccn2)=C(O)c2sccc2S1(=O)=O
0.504

Return reported z-score. Input compound: O=C(O)c1cc(=O)c2c(OCC(O)COc3cccc4oc(C(=O)O)cc(=O)c34)cccc2o1
0.177

Return reported z-score. Input compound: C[Se]CCC(N)C(=O)O (stereo unspecified)
0.35

Return reported z-score. Input compound: COc1c(O)cc2c(c1O)[C@@H]1O[C@H](CO)[C@@H](O)[C@H](O)[C@H]1OC2=O
0.313

Return reported z-score. Input compound: c1ccc2[nH]c(-c3cscn3)nc2c1
0.601

Return reported z-score. Input compound: CC(C)c1nc(CN(C)C(=O)N[C@H](C(=O)N[C@@H](Cc2ccccc2)C[C@H](O)[C@H](Cc2ccccc2)NC(=O)OCc2cncs2)C(C)C)cs1
-0.388

Return reported z-score. Input compound: Cc1nc2n(c(=O)c1CCN1CCC(c3noc4cc(F)ccc34)CC1)CCCC2
0.441

Return reported z-score. Input compound: Cc1ccc(C(=O)c2cc(O)c(O)c([N+](=O)[O-])c2)cc1
0.88

Return reported z-score. Input compound: CCN(CC)CCOc1ccc(Nc2ncc3cc(-c4c(Cl)cccc4Cl)c(=O)n(C)c3n2)cc1
-3.17

Return reported z-score. Input compound: Nc1cc(C(Cl)=C(Cl)Cl)c(S(N)(=O)=O)cc1S(N)(=O)=O
0.22

Return reported z-score. Input compound: Nc1cccc2c1CN(C1CCC(=O)NC1=O)C2=O (stereo unspecified)
1.94

Return reported z-score. Input compound: O=C(O)CCNC(=O)c1ccc(N=Nc2ccc(O)c(C(=O)O)c2)cc1
0.51

Return reported z-score. Input compound: Cc1nc(-c2ccc(OCC(C)C)c(C#N)c2)sc1C(=O)O
0.952

Return reported z-score. Input compound: CS(=O)(=O)OCCCCOS(C)(=O)=O
2.44

Return reported z-score. Input compound: Nc1ccn([C@@H]2O[C@H](CO)[C@@H](O)C2O)c(=O)n1 (stereo partly specified)
0.809

Return reported z-score. Input compound: COc1cc2c(cc1OC)C1CC(=O)C(CC(C)C)CN1CC2 (stereo unspecified)
0.433

Return reported z-score. Input compound: O=C1c2c(O)cc(O)cc2OC(c2ccc(O)c(O)c2)C1O (stereo unspecified)
0.528

Return reported z-score. Input compound: CCOC(=O)C1=C(O)C(=O)N(Cc2ccccc2)C1
0.303

Return reported z-score. Input compound: Nc1ccc(S(N)(=O)=O)cc1
0.709
